Give measured IL-2, % of BMS, at 0.027434842 ug/mL for each item. Keep answers brief.
molecular target: human LAG3 expressed on cells (human) (UniProt P18627); assay: cell-based or functional assay
Sequence (P18627 23-525): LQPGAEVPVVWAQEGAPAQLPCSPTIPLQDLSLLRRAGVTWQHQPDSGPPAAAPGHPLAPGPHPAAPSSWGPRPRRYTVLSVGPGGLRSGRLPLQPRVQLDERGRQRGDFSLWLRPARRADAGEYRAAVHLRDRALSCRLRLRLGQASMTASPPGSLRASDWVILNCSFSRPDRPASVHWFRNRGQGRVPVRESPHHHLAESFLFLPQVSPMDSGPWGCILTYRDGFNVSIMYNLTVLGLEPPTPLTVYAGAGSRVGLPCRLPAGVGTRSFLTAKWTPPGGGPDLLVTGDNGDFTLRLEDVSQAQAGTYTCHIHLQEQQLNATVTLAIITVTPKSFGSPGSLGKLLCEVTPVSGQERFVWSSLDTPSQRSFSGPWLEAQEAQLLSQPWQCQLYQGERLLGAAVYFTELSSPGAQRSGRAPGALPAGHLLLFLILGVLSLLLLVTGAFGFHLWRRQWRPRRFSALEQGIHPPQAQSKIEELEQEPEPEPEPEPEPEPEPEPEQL
Write it as a number; the unit % goes unstated.

Recorded IL-2, % of BMS, at 0.027434842 ug/mL for sdAb fusion 25-27-3 (Fc fusion, not shown: a dimerising Fc or GST) QLQLVESGGGLVQAGGSLRLSCAASGSIESFSFMGWYRQAPGKQRELVAGFTGAASLSFSTYTDAVKGRFTISRDNAKNTVYLQMNSLKPEDTAVYFCNVDPWSQSWPGRYWGQGTQVTVSSGGGGSGGGGSGGGGSQVQLVESGGGLVQPGGSLRLSCAASGFTLDYYAIGWFRQAPGKEREGVSCIRSSDGSTYYADSVKGRFTISSDNTKNTVYLQMNSLKPEDTAVYYCATDRYSDCRGPYENWGQGTQVTVSSEPKSCDKTHTCPPCPAPELLG , please? -8.9

Recorded IL-2, % of BMS, at 0.027434842 ug/mL for sdAb fusion 25-17-1 (Fc fusion, not shown: a dimerising Fc or GST) QLQLVESGGGLVQAGGSLRLSCAASGSIESFSFMGWYRQAPGKQRELVAGFTGAASLSFSTYTDAVKGRFTISRDNAKNTVYLQMNSLKPEDTAVYFCNVDPWSQSWPGRYWGQGTQVTVSSGGGGSQLQLVESGGGLVQPGGSLRLSCAASGLTLDGYAIGWFRQAPGKEREGLACISGSDGSTHYLDSVKGRFTISRDNGKNTMALQMNSLQFGDTAIYYCAARRGSCSGSWTYWGQGTQVTVSS , please? -2.73

Recorded IL-2, % of BMS, at 0.027434842 ug/mL for sdAb fusion 25-17-2 (Fc fusion, not shown: a dimerising Fc or GST) QLQLVESGGGLVQAGGSLRLSCAASGSIESFSFMGWYRQAPGKQRELVAGFTGAASLSFSTYTDAVKGRFTISRDNAKNTVYLQMNSLKPEDTAVYFCNVDPWSQSWPGRYWGQGTQVTVSSGGGGSGGGGSQLQLVESGGGLVQPGGSLRLSCAASGLTLDGYAIGWFRQAPGKEREGLACISGSDGSTHYLDSVKGRFTISRDNGKNTMALQMNSLQFGDTAIYYCAARRGSCSGSWTYWGQGTQVTVSSEPKSCDKTHTCPPCPAPELLG , please? 12
